# TESTED TARGET: T1, phosphorylated Rab10 in lysates of HEK cells overexpressing LRRK2 (Homo sapiens, UniProt P61026)
# T1 construct: expressed in transfected cells; host or cells: HEK cells overexpressing LRRK2
# T1 sequence (P61026 1-200): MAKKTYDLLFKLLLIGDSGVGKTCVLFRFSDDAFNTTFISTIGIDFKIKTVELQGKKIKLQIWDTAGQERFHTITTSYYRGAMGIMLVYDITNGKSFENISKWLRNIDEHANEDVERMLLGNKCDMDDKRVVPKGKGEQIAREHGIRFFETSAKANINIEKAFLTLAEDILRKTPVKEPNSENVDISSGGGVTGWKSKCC
# ASSAY OVERVIEW: Sandwich ELISA (diagnostic), HEK cells overexpressing LRRK2
# Assay type: binding
# EXPERIMENTAL SETUP: DMSO treated cells
# Method: Sandwich ELISA (Diagnostic) with Anti-Phospho-Rab10 Antibody as the Capture Antibody: ELISA plates were prepared by coating white Nunc MaxiSorp 384 well plates (Thermo Fisher #460372/Sigma #P6491) with capture antibody for 1 hour at room temperature on a shaking platform. […] Afterwards plates were read on the Synergy plate reader to measure relative light units (RLU). […]
ASSAY ENDPOINT: Sandwich ELISA (diagnostic) HEK cells overexpressing LRRK2, DMSO (RLU mean ± SD) (RLU)
# unit: RLU | format: bare number

In the examples that follow, each entry is paired with its recorded Sandwich ELISA (diagnostic) HEK cells overexpressing LRRK2, DMSO (RLU mean ± SD).
Q: Tell me the measured Sandwich ELISA (diagnostic) HEK cells overexpressing LRRK2, DMSO (RLU mean ± SD) of Clone 19-4: anti-phosphorylated (pT73) Rab10 rabbit monoclonal antibody; VH SEQ ID NO:17, VL SEQ ID NO:18 (antibody, V domains shown) VH: METGLRWLLLVAVLKGVQCQSVEESGGRLVTPGTPLTLTCTVSGFSLSSYAMVWVRQAPGKGLEYIGLISRSGVTYYATWAKGRFTISKASTTVDLKIASPTTGDTATYFCVRDYDSAGWSGFTIWGPGTLVTVSA VL: MDTRAPTQLLGLLLLWLPGAICDPVMTQTPSSTSAAVGGTVTINCQSSQSVYGNNYLSWYQQKPGQPPKLLIYKASTLASGVPSRFVGSGSGTQFTLTISDLECDDAATYYCAGAASDTRFFGGGTELVVN , please.
A: 80524

Q: Tell me the measured Sandwich ELISA (diagnostic) HEK cells overexpressing LRRK2, DMSO (RLU mean ± SD) of Clone 133-2: anti-phosphorylated (pT73) Rab10 rabbit monoclonal antibody; VH SEQ ID NO:31, VL SEQ ID NO:35 (antibody, V domains shown) VH: METGLRWLLLVAVLKGVQCQEQLVESGGGLVQPEGSLTLTCKASGFDLSSHYYMCWVRQAPGKGLEWIVCISNGSGNTYYASWAKGRFTISKTSSTTVTLHMTSLTVADTATYFCARNFGSNYGDAFDPWGPGTLVTVSS VL: MDTRAPTQLLGLLLLWLPGATFAQVLTQTPSPVSAAVGGTVTISCQSSKSVYSNNYLSWYQQKPGQPPKLLIYSASILASGVPSRFSGSGSGTQFTLTISGVQCDDAATYYCQGSYAGSGWYIGFGGGTEVVVK , please.
A: 18605

Then there is this molecule:
Q: Tell me the measured Sandwich ELISA (diagnostic) HEK cells overexpressing LRRK2, DMSO (RLU mean ± SD) of Clone 5: anti-phosphorylated (pT73) Rab10 rabbit monoclonal antibody; VH SEQ ID NO:1, VL SEQ ID NO:5 (antibody, V domains shown) VH: METGLRWLLLVAVLKGVQCQSVEESGGRLVTPGTPLTLTCTVSGFSLSSYAMVWVRQAPGKGLEYIGLISRSGVTYYATWAKGRFTISKASTTVDLKIASPTTGDTATYFCVRDYDINGWSGFTIWGPGTLVTVSA VL: MDTRAPTQLLGLLLWLPGAICDPVMTQTPSSTSAAVGGTVTINCQSSQSVYGNNYFSWYQQKPGQPPKLLIYKASTLASGVPSRFKGSGSGTQFTLTISDLECDDAATYYCAGAASDTRFFGGGTELVVN , please.
A: 85175
